Test Details: qHTS assay to identify small molecule agonists of the retinoic acid receptor (RAR) signaling pathway (AID 1159553)
Test Parameters: C3RL4 RARE luciferase reporter, agonist, 6 h
Results filed as inconclusive are left out. Calls of active or inactive are those of the source. The call rests on the fitted dose curve; in most records, active means well fitted activation curve with a large enough effect in the repeat runs; inconclusive means weak or mixed curves, or effect the other way; inactive means no such curve, though single readings can be large or run the other way.
Quantity: outcome

CCCCOCC1CO1 (centres undefined) ... inactive
CS(=O)(=O)NC(=O)c1cc(Oc2ccc(C(F)(F)F)cc2Cl)ccc1[N+](=O)[O-] ... inactive
ClC(Cl)(Cl)Br ... inactive
ClC(Cl)=C(Cl)C(Cl)=C(Cl)Cl ... inactive
[CH3][Sn]([Cl])([Cl])[Cl] ... inactive
C[N+](C)(C)C ... inactive

Fill blank: measured outcome of the compound Oc1ccc(Cl)cc1Cl is ____.
inactive

Fill blank: measured outcome of the compound Clc1cccc(Cl)c1 is ____.
inactive

Fill blank: measured outcome of the compound CSc1nc(NC(C)C)nc(NC(C)C)n1 is ____.
inactive

###

Test Details: qHTS assay to identify small molecule agonists of the AP-1 signaling pathway - cell viability counter screen (AID 1159525); further: nearly all actives have a fitted effect of over 55% in size
Test Parameters: ME-180 (cervical carcinoma) AP-1-bla cells viability, ATP luminescence, 5 h; series mostly up to 76.8 µM
Records with an inconclusive call do not appear. Calls of active or inactive are those of the source. The call rests on the fitted dose curve.
Select the matching outcome among active, inactive

O=NN(c1ccccc1)c1ccccc1 ... inactive
CC1(C)Cc2cccc(O)c2O1 ... inactive
CCOC(=O)c1ccccc1N ... inactive
CCCCCCCCCC(CC)c1ccc(S(=O)(=O)O)cc1 (centres undefined) ... active
C[N+](C)(C)CC(=O)[O-] ... inactive
[Cl-].[Cl-].[Cl-].[Fe+3] ... inactive
Clc1ccccc1-c1nnc(-c2ccccc2Cl)nn1 ... inactive
COc1ccc(C=O)cc1OC ... inactive

Hi, sorry to bother you, what did the test record for CC(C)(O)C(=O)Nc1ccc([N+](=O)[O-])c(C(F)(F)F)c1 ?
inactive

###

Tested System: Aryl hydrocarbon receptor (Homo sapiens)
Test Details: qHTS assay to identify small molecule that activate the aryl hydrocarbon receptor (AhR) signaling pathway (AID 743085);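 further: HG2L7.5c1 human HepG2 liver cells with stably integrated DRE-driven firefly reporter; nearly all actives have a fitted effect of over 15% in size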
Test Parameters: HepG2 AhR-luc (HG2L7.5c1), luciferase, 24 h; series mostly up to 70.3 µM
Results filed as inconclusive are left out. Activity calls are given as the source filed them. The call rests on the fitted dose curve; in most records, active means well fitted activation curve with a large enough effect in the repeat runs; inconclusive means weak or mixed curves; inactive means no such curve, though single readings can be large or run the other way.
Select the matching outcome among y (active), n (inactive)

Solved entries:
CC(C)=CC1C(C(=O)OCc2cccc(Oc3ccccc3)c2)C1(C)C (stereo not drawn) ... n
COP(=S)(OC)SCn1nnc2ccccc2c1=O ... n
C[C@]12CC[C@H]3[C@@H](CCC4=CC(=O)CC[C@@H]43)[C@@H]1CC[C@@H]2O ... n
O=C(O)CF ... n
CN(C)P(=O)(N(C)C)N(C)C ... n
CC(C)(c1ccccc1)c1ccc(O)c(C(C)(C)c2ccccc2)c1 ... n
N#Cc1c(Cl)c(Cl)c(Cl)c(C#N)c1Cl ... n
CCCCOCCOC(C)=O ... n
Nc1ncn[nH]1 ... n
CCOP(=O)(OCC)OCC ... n

Hi, sorry to bother you, what did the test record for CCOP(=S)(OCC)OP(=S)(OCC)OCC ?
n

Hi, sorry to bother you, what did the test record for CC(C)(O)C(=O)Nc1ccc([N+](=O)[O-])c(C(F)(F)F)c1 ?
n

Hi, sorry to bother you, what did the test record for Clc1ccc(C(Cl)(Cl)Cl)cc1 ?
n

Hi, sorry to bother you, what did the test record for O=[N+]([O-])c1ccc(Nc2ccccc2)cc1 ?
n

###

Tested System: Nuclear receptor subfamily 1 group I member 2 (Homo sapiens) (UniProt O75469)
Sequence (O75469 whole entry, looked up): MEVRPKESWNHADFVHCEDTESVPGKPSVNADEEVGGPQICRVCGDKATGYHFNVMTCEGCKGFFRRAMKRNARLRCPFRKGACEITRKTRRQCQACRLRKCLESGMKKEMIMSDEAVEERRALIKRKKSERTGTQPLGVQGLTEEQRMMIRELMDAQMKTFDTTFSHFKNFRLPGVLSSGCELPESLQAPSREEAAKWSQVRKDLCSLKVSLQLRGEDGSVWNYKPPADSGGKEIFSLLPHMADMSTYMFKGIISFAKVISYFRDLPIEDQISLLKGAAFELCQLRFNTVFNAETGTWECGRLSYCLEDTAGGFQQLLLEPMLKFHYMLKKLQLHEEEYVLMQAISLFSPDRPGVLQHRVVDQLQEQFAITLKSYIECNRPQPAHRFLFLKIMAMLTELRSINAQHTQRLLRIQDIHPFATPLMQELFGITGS
Test Details: Human pregnane X receptor (PXR) small molecule agonists, qHTS assay (AID 1346982); further: nearly all actives have a fitted effect of over 35% in size
Test Parameters: PXR-Luc HepG2, CYP3A4 luciferase reporter, 24 h; series mostly up to 92.4 µM
Inconclusive results are not listed. Activity calls are given as the source filed them. Calls come from the whole dose curve; as a rule, active = well fitted activation curve with a large enough effect in the repeat runs; inconclusive = weak or mixed curves; inactive = no such curve, though single readings can be large or run the other way.
Select the matching outcome among Yes = active, No = inactive

Solved entries:
CC1(C)Cc2cccc(O)c2O1 ... No
CCCCOC(=O)COC(=O)c1ccccc1C(=O)OCCCC ... No
CC1(C)C(C(=O)OC(C#N)c2cccc(Oc3ccccc3)c2)C1(C)C (stereo unspecified) ... Yes
CC(C)(O)C#N ... No
CCOS(=O)(=O)OCC ... No

Hi, sorry to bother you, what did the test record for Clc1cccc(Cl)c1 ?
No

Hi, sorry to bother you, what did the test record for COc1ccc(O)c(C(C)(C)C)c1 ?
No

Hi, sorry to bother you, what did the test record for ClCc1ccccn1 ?
No

Hi, sorry to bother you, what did the test record for CCOC(=O)c1ccccc1N ?
No

Hi, sorry to bother you, what did the test record for NN=C(N)N ?
No

###

Test Details: qHTS assay to identify small molecule antagonists of the androgen receptor (AR) signaling pathway - cell viability counter screen (AID 743033; further: nearly all actives have a fitted effect of over 45% in size)
Test Parameters: AR-bla HEK293 viability, CellTiter-Glo luminescence, 16 h; series mostly up to 58.5 µM
Results filed as inconclusive are left out. Activity calls are given as the source filed them. The call rests on the fitted dose curve; in most records, active means well fitted cell-killing curve with a large enough effect in the repeat runs; inconclusive means weak or mixed curves; inactive means no such curve, though single readings can be large or run the other way.
Select the matching outcome among active, inactive

Solved entries:
O=C1CCCO1 ... inactive
Nc1ccc([N+](=O)[O-])cc1N ... inactive
CCC/C=N/O ... inactive
N#Cc1cccnc1 ... inactive
COc1ccc(CO)cc1 ... inactive
C[C@]12CCC(=O)C=C1CC[C@@H]1[C@@H]2CC[C@@]2(C)[C@H]1CC[C@]2(C)O ... inactive
N#CCCCCC#N ... inactive
Brc1ccc(Br)cc1 ... inactive
[Cl-].[Cl-].[Cl-].[Fe+3] ... inactive
ClCC(Cl)CCl ... inactive

Hi, sorry to bother you, what did the test record for CC(C)=CC1C(C(=O)OCc2cccc(Oc3ccccc3)c2)C1(C)C (stereo unspecified) ?
inactive

Hi, sorry to bother you, what did the test record for O=C(O)CF ?
inactive

Hi, sorry to bother you, what did the test record for O=[N+]([O-])c1ccc(Nc2ccccc2)cc1 ?
active

Hi, sorry to bother you, what did the test record for C=C(C)C#N ?
inactive

Hi, sorry to bother you, what did the test record for O=C1Nc2ccc(Cl)cc2C(c2ccccc2)=NC1O (stereo unspecified) ?
inactive

Hi, sorry to bother you, what did the test record for CCCCOC(=O)COC(=O)c1ccccc1C(=O)OCCCC ?
inactive

###

Test Details: qHTS assay to identify small molecule antagonists of the androgen receptor (AR) signaling pathway using the MDA cell line in the presence of 0.5 nM R1881 - cell viability counter screen (AID 1259242); further: nearly all actives have a fitted effect of over 45% in size
Test Parameters: MDA-kb2 viability, CellTiter-Fluor protease fluorescence, 16 h; series mostly up to 92.4 µM
Results filed as inconclusive are left out. Calls of active or inactive are those of the source. Calls follow the shape of the dose curve; as a rule, active = well fitted cell-killing curve with a large enough effect in the repeat runs; inconclusive = weak or mixed curves, or effect the other way; inactive = flat fitted curve, though single readings scatter.
Select the matching outcome among active, inactive

Solved entries:
CN(C)c1nc(=O)n(C2CCCCC2)c(=O)n1C ... inactive
C[C@]12CC[C@H]3[C@@H](CCC4=CC(=O)CC[C@@H]43)[C@@H]1CC[C@@H]2O ... inactive
CCCCCCCCCCCCCl ... inactive
Clc1cccc(Cl)c1 ... inactive
CCNCC ... inactive
Cc1cccc(N=Nc2ccc(N(C)C)cc2)c1 ... inactive
CC(C)CON=O ... inactive
C[N+](C)(C)CC(=O)O ... inactive
[Cl-].[Cl-].[Cl-].[Fe+3] ... inactive
COc1ccc(O)c(C(C)(C)C)c1 ... inactive

Hi, sorry to bother you, what did the test record for CCNc1nc(Cl)nc(NC(C)(C)C#N)n1 ?
inactive

Hi, sorry to bother you, what did the test record for CC1(C)C(C(=O)OC(C#N)c2cccc(Oc3ccccc3)c2)C1(C)C (stereo not drawn) ?
inactive

Hi, sorry to bother you, what did the test record for Clc1ccccc1-c1nnc(-c2ccccc2Cl)nn1 ?
inactive

Hi, sorry to bother you, what did the test record for CCC(=O)Nc1ccc(Cl)c(Cl)c1 ?
inactive

Hi, sorry to bother you, what did the test record for ClC(Cl)(Cl)c1ccccc1 ?
inactive

###

Test Details: qHTS assay to identify small molecule agonists of the peroxisome proliferator-activated receptor delta (PPARd) signaling pathway - cell viability counter screen (AID 743211); further: nearly all actives have a fitted effect of over 55% in size
Test Parameters: PPARd-bla HEK293H viability, CellTiter-Glo luminescence, 17 h; series mostly up to 62.6 µM
Inconclusive results are not listed. Active and inactive are the calls of the source. Calls follow the shape of the dose curve; as a rule, active = well fitted cell-killing curve with a large enough effect in the repeat runs; inconclusive = weak or mixed curves; inactive = no such curve, though single readings can be large or run the other way.
Select the matching outcome among y for active, n for inactive

Solved entries:
O=[N+]([O-])/N=C1\NCCN1Cc1ccc(Cl)nc1 ... n
C[C@]12CC[C@H]3[C@@H](CCC4=CC(=O)CC[C@@H]43)[C@@H]1CC[C@@H]2O ... n

Hi, sorry to bother you, what did the test record for CC(C)(c1ccc(OCC2CO2)cc1)c1ccc(OCC2CO2)cc1 (centres undefined) ?
y

Hi, sorry to bother you, what did the test record for CN(C)c1ccccc1 ?
n

Hi, sorry to bother you, what did the test record for CCC1(c2ccc(N)cc2)CCC(=O)NC1=O (centres undefined) ?
n

Hi, sorry to bother you, what did the test record for Cn1c(-c2ccccc2)cc(-c2ccccc2)[n+]1C ?
n

Hi, sorry to bother you, what did the test record for CC1CC(=O)O1 (centres undefined) ?
n

Hi, sorry to bother you, what did the test record for OCCOCCO ?
n

Hi, sorry to bother you, what did the test record for Brc1ccc(Br)cc1 ?
n

Hi, sorry to bother you, what did the test record for CCCCC(C#N)(Cn1cncn1)c1ccc(Cl)cc1 (centres undefined) ?
n

Hi, sorry to bother you, what did the test record for C[N+](C)(C)CC(=O)O ?
n

Hi, sorry to bother you, what did the test record for CNC(=S)S ?
n

Hi, sorry to bother you, what did the test record for N#Cc1cccnc1 ?
n

Hi, sorry to bother you, what did the test record for c1ccc(C2CO2)cc1 (centres undefined) ?
n

Hi, sorry to bother you, what did the test record for CC1=C(C(=O)Nc2ccccc2)SCCO1 ?
n

Hi, sorry to bother you, what did the test record for c1ccc2c(c1)Nc1ccccc1S2 ?
n

Values from PubChem BioAssay (Tox21)
